# system-tested: T1, G132N CHIP-TPR (human, UniProt Q9UNE7 21-154, G132N)
# T1 construct: CHIP (STUB1), human, TPR domain with G132N; also called G132N variant
# T1 sequence (looked up): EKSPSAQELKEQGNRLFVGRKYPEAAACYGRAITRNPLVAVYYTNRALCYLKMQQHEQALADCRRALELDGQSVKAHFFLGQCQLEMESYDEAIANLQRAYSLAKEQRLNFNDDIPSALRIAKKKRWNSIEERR
# procedure-details: BLI; BLItz, biotinylated peptide loaded on streptavidin sensors, TPR construct at 1 to 25 uM in solution; 20 mM HEPES, 150 mM NaCl, 5 mM beta-mercaptoethanol, pH 7.2; Kd = koff/kon from individual fits
# condition-description: both partners purified
Square brackets hold non-standard residues; d marks the D form. Ends that are not written are not given here. * marks the point of attachment. Biotin = O=C1N[C@H]2[C@H](CS[C@H]2CCCCC(=O)*)N1; pT = C[C@@H](OP(=O)(O)O)[C@H](N)C(=O)O
quantity-measured: Kd (nM)

binder="Biotin-GSGSGPTIEEVD (C-terminal tail of human HSP70 (HSPA1A); also called biotin-EEVD; biotinylated EEVD peptide; source: synthetic peptide (Lifetein/Genscript)) [biotin-GSGSGPTIEEVD]" quantity_measured=Kd unit_label=nM test_result=597
binder="Biotin-GSGSGP[pT]IEEVD (C-terminal tail of human HSP70 (HSPA1A), Thr636 phosphorylated; also called biotin-pEEVD; biotinylated pEEVD peptide; source: synthetic peptide (Lifetein/Genscript)) [biotin-GSGSGP(pT)IEEVD]" quantity_measured=Kd unit_label=nM test_result=1250

Numbers sourced from paper PMC13090976.
